# Test system: Mast/stem cell growth factor receptor Kit (Homo sapiens), P10721 [T670I]
# Sequence (P10721 whole entry T670I): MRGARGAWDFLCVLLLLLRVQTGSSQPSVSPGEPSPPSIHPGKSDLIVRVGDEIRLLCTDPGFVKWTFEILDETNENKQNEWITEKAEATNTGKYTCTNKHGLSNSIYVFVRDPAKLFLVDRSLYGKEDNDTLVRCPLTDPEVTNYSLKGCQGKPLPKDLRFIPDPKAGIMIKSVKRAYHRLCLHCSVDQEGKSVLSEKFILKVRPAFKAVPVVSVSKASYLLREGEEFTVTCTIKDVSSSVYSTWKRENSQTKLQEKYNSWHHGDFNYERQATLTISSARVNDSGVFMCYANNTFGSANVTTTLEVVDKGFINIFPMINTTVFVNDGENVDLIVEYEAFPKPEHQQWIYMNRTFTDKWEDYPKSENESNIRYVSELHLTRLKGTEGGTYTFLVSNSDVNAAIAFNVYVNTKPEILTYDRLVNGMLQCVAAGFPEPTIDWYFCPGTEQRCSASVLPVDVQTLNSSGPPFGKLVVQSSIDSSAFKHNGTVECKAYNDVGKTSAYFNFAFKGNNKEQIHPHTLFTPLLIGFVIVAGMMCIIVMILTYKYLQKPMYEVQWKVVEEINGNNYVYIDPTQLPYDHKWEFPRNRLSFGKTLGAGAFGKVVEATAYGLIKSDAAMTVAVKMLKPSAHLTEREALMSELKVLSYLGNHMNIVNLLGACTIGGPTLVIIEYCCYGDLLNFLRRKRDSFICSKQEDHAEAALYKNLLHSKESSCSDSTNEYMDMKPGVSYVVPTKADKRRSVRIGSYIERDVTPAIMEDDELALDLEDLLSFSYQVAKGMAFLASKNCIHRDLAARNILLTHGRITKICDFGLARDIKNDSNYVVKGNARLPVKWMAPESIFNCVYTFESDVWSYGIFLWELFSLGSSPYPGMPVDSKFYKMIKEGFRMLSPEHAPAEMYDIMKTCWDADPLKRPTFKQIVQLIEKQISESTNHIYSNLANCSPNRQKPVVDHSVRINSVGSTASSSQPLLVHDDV
# condition info: at 0.1 µM
Measured inhibition, listed per entry for reference.
measurement label: inhibition (%)

In [3]: df
Out[3]:
                               query_smiles  value_reported
0  NS(=O)(=O)c1cccc(N/C=C2\C(=O)Nc3ccccc32)c1            6.57
1  CS(=O)(=O)Nc1ccc(-c2ccc3c(NC(=O)C4CC4)n[nH]c3c2)cc1            1.55
2  NS(=O)(=O)c1ccc(N/N=C2\C(=O)Nc3cccc(CCc4ccncc4)c32)cc1            6.45
3    CCn1c(-c2nonc2N)nc2cncc(C(=O)NCCNC)c21            3.08
4  COc1cc(N2CCN(C(C)C)CC2)ccc1Nc1nc(Nc2cccc(F)c2C(=O)O)c2cc[nH]c2n1            2.33
5  CNC(=O)c1sc(-n2cnc3cc(OC)c(OC)cc32)cc1OCc1ccccc1C(F)(F)F            1.67
6     COc1cccc(Nc2nccc(-c3cnn4ncccc34)n2)c1            60.9

====

# Test system: Tyrosine-protein kinase ABL1 (Homo sapiens), P00519 [T315I]
# condition info: at 0.1 µM
Measured inhibition, listed per entry for reference.
measurement label: inhibition (%)

                                query_smiles  measurement_label  value_reported
 0  CNC(=O)c1sc(-n2cnc3cc(OC)c(OC)cc32)cc1OCc1ccccc1C(F)(F)F         inhibition            1.96
 1  O=C(O[C@H]1CN[C@H](C#Cc2cc3ncnc(Nc4ccc5c(ccn5Cc5cc(F)ccc5F)c4)c3s2)C1)N1CCOCC1         inhibition            3.97
 2  CN(c1ccc(NC(=O)NCCN2CCOCC2)cc1)c1ccnc(Nc2ccc(CS(C)(=O)=O)cc2)n1         inhibition             6.6
 3  O=C(O[C@H]1CN[C@H](C#Cc2cc3ncnc(Nc4ccc5c(cnn5Cc5ccccc5)c4)c3s2)C1)N1CCOCC1         inhibition           -1.97
 4  COc1c(C(N)=O)cc(-c2ccc(Cl)cc2)cc1-c1ccc(S(N)(=O)=O)cc1         inhibition            3.24
 5  COc1ccccc1-c1cc(/C=C2\C(=O)Nc3ncc(Br)cc32)cc(Br)c1O         inhibition            1.82
 6  COc1cc(N2CCN(C(C)C)CC2)ccc1Nc1nc(Nc2cccc(F)c2C(=O)O)c2cc[nH]c2n1         inhibition            3.83
 7      Cc1cc(O)cc(C)c1/C=C/c1cncc(C(N)=O)c1         inhibition            2.31
 8    CCn1c(-c2nonc2N)nc2cncc(C(=O)NCCNC)c21         inhibition            3.85
 9       COc1cc(Nc2ncc(-c3ccccc3)o2)cc(OC)c1         inhibition            4.18
10  Cc1c2ccc(N(C)c3ccnc(Nc4cccc(S(N)(=O)=O)c4)n3)cc2nn1C         inhibition            11.3
11    c1cnn2ncc(-c3ccnc(NCCCN4CCOCC4)n3)c2c1         inhibition            2.37
12  CCCNc1cccc(-n2ncc3c(N/N=C/c4ccncc4)ncnc32)c1         inhibition            37.5

====

# tested system: Cytoplasmic tyrosine-protein kinase BMX (Homo sapiens) (UniProt P51813);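 also: reported value is the mean percent inhibition of BMX, from the GSK PKIS kinase inhibitor screen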
# Sequence (whole entry): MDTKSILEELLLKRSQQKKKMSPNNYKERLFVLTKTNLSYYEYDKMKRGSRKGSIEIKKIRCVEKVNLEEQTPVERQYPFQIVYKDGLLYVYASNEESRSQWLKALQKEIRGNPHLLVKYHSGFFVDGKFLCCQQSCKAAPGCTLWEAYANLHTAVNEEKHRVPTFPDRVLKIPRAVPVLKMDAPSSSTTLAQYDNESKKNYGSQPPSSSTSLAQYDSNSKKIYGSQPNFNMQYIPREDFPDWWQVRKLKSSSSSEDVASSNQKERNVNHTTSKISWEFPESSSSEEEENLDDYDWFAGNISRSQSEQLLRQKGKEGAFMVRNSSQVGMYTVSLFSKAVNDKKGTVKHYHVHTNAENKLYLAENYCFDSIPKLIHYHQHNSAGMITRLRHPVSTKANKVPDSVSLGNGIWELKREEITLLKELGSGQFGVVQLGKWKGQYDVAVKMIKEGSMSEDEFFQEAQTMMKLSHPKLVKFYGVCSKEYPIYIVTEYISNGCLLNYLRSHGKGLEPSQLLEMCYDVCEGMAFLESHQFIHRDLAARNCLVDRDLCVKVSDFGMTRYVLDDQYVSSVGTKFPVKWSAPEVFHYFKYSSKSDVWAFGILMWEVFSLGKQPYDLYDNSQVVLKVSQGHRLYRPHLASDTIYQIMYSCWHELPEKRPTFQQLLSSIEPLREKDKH
# condition info: at 1 µM
Measured inhibition, listed per entry for reference.
measurement label: inhibition

>>> print(df.to_string())
                                query_smiles                             tested_system  value_reported
 0  CS(=O)(=O)CCNCc1ccc(-c2ccc3ncnc(Nc4ccc(OCc5ccccc5)cc4)c3c2)o1  Cytoplasmic tyrosine-protein kinase BMX (Homo sapiens) (UniProt P51813)           8.85%
 1  CN(C)CCNC(=O)Nc1ccc(N(C)c2ccnc(Nc3ccc(CS(C)(=O)=O)cc3)n2)cc1  Cytoplasmic tyrosine-protein kinase BMX (Homo sapiens) (UniProt P51813)           10.5%
 2  Fc1ccc(Nc2nccc(-c3c(-c4ccc(C(F)(F)F)cc4)nn4ncccc34)n2)cc1F  Cytoplasmic tyrosine-protein kinase BMX (Homo sapiens) (UniProt P51813)           5.09%
 3    CCn1c(-c2nonc2N)nc2cncc(C(=O)NCCNC)c21  Cytoplasmic tyrosine-protein kinase BMX (Homo sapiens) (UniProt P51813)           5.15%
 4  CCOc1ccc2c(-c3ccnc(Nc4cc(OC)cc(C(F)(F)F)c4)n3)cnn2n1  Cytoplasmic tyrosine-protein kinase BMX (Homo sapiens) (UniProt P51813)           2.82%
 5  NS(=O)(=O)c1ccc(N/N=C2\C(=O)Nc3ccc(C(=O)NCc4ccncc4)cc32)cc1  Cytoplasmic tyrosine-protein kinase BMX (Homo sapiens) (UniProt P51813)           4.33%
 6           CNC(=O)c1cncc(/C=C/c2ccccc2C)c1  Cytoplasmic tyrosine-protein kinase BMX (Homo sapiens) (UniProt P51813)           16.1%
 7    O=C(Nc1n[nH]c2nnc(-c3cccnc3)cc12)C1CC1  Cytoplasmic tyrosine-protein kinase BMX (Homo sapiens) (UniProt P51813)           0.81%
 8          N#Cc1cccc(Nc2ncc(-c3ccccc3)o2)c1  Cytoplasmic tyrosine-protein kinase BMX (Homo sapiens) (UniProt P51813)           3.56%
 9                 Cn1c(-c2nonc2N)nc2cnccc21  Cytoplasmic tyrosine-protein kinase BMX (Homo sapiens) (UniProt P51813)           4.09%
10  CNC(=O)c1ncccc1Nc1nc(Nc2cc3c(cc2OC)CCCN3C(=O)CN(C)C)nc2[nH]ccc12  Cytoplasmic tyrosine-protein kinase BMX (Homo sapiens) (UniProt P51813)           4.96%
11  CC1(C)CC(n2cnc(-c3ccc(F)cc3)c2-c2ccnc(N)n2)CC(C)(C)N1  Cytoplasmic tyrosine-protein kinase BMX (Homo sapiens) (UniProt P51813)           1.06%
12  COc1c(C(N)=O)cc(-c2ccc(Cl)cc2)cc1-c1ccc(S(N)(=O)=O)cc1  Cytoplasmic tyrosine-protein kinase BMX (Homo sapiens) (UniProt P51813)           6.04%
13  NC(=O)c1ccc2c(-c3ccnc(NCCCO)n3)c(-c3ccc(F)cc3)nn2c1  Cytoplasmic tyrosine-protein kinase BMX (Homo sapiens) (UniProt P51813)           9.25%
14  CNC(=O)c1sc(-n2cnc3cc(OC)c(OC)cc32)cc1OCc1ccccc1C(F)(F)F  Cytoplasmic tyrosine-protein kinase BMX (Homo sapiens) (UniProt P51813)           2.17%
15  COc1cc2c(cc1Nc1nc(Nc3cccc(F)c3C(N)=O)c3cc[nH]c3n1)N(C(=O)CN1CCN(C(C)C)CC1)CC2  Cytoplasmic tyrosine-protein kinase BMX (Homo sapiens) (UniProt P51813)           3.16%
16       COc1cc(Nc2ncc(-c3ccccc3)o2)cc(OC)c1  Cytoplasmic tyrosine-protein kinase BMX (Homo sapiens) (UniProt P51813)           6.51%
17        FC(F)(F)CNc1nccc(-c2cnn3ncccc23)n1  Cytoplasmic tyrosine-protein kinase BMX (Homo sapiens) (UniProt P51813)           2.03%
